Just for reference, patent US7166567B2 is where these values come from.

Below, each entry is listed alongside its reported Divided. Initial Retention.
Assay: Retention of fragrance material components after granulation by GC/MS
Type: physicochemical
Settings: fragrance divided between core particles and outer matrix (Example 2.2)
outcome measure: Divided. Initial Retention (%)

- compound: "CC(=O)/C=C/C1=C(C)CCCC1(C)C [Beta ionone]"
  scale unit: "%"
  recorded number: 100
- compound: "O=C(OCc1ccccc1)c1ccccc1 [Benzyl benzoate]"
  scale unit: "%"
  recorded number: 88
- compound: "CC(C)=CCCC(C)CCO (stereo not shown) [Citronellol]"
  scale unit: "%"
  recorded number: 100
- compound: "CC(=O)CCC1=C(C)CCCC1(C)C [Dihydro beta ionone]"
  scale unit: "%"
  recorded number: 84
- compound: "CCC(C)(O)CCCC(C)C (stereo not shown) [Tetrahydro linalool]"
  scale unit: "%"
  recorded number: 97
- compound: "O=C(OC1CCCCC1)c1ccccc1O [Cyclohexyl salicylate]"
  scale unit: "%"
  recorded number: 94
- compound: "CCCCCCCCCC=O [Aldehyde C10]"
  scale unit: "%"
  recorded number: 93
